Procedure details: Volume distribution in fischer rats at 5 mg/kg dose, administered intravenously
Assay type: ADME, organism-based
Set-up: dose 5 mg/kg, route intravenous
Measurement conditions: rat, in vivo, iv, read-out: Volume distribution
Measured quantity: Vd (L/kg)
API: value field is a number in L/kg; no unit string.

Prompt: Field request: Vd | item: CS(=O)(=O)Nc1ccccc1N1CCN(C(=O)[C@@H](Cc2ccc(Cl)cc2)NC(=O)[C@H]2Cc3ccccc3CN2)CC1
Response: 4.5

====

Here the recorded EC50 is given for each entry.
System: Melanocortin receptor 4 (Homo sapiens)
Sequence (P32245 whole entry): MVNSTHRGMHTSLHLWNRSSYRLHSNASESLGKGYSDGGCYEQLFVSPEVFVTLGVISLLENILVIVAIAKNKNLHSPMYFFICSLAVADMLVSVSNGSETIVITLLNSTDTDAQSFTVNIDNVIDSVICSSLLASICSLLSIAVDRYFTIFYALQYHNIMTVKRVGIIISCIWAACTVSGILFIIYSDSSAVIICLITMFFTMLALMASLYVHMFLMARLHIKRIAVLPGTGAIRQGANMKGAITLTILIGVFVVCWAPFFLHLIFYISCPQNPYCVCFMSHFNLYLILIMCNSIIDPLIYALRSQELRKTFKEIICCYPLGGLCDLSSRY
Procedure details: Agonistic potency towards human melanocortin 4 receptor, determined by 50% maximum cAMP release
API: value field is a number in nM; no unit string.

Worked cases, EC50 given:
{"Mol smiles": "O=C(N[C@H](Cc1ccc(Cl)cc1)C(=O)N1CCN(c2ccccc2CO)CC1)[C@H]1Cc2ccccc2CN1", "U": "nM", "Quantitative result": 150}
{"Mol smiles": "COc1ccccc1N1CCN(C(=O)[C@@H](Cc2ccc(Cl)cc2)NC(=O)[C@H]2Cc3ccccc3CN2)CC1", "U": "nM", "Quantitative result": 71}
{"Mol smiles": "CN(C)c1ccccc1N1CCN(C(=O)[C@@H](Cc2ccc(Cl)cc2)NC(=O)[C@H]2Cc3ccccc3CN2)CC1", "U": "nM", "Quantitative result": 44}
{"Mol smiles": "O=C(N[C@H](Cc1ccc(Cl)cc1)C(=O)N1CCN(c2ccccc2CN2CCCC2)CC1)[C@H]1Cc2ccccc2CN1", "U": "nM", "Quantitative result": 39}

Consider the additional compound presented here.
Prompt: Field request: EC50 | item: CCOc1ccccc1N1CCN(C(=O)[C@@H](Cc2ccc(Cl)cc2)NC(=O)[C@H]2Cc3ccccc3CN2)CC1
Response: 40

Every entry's value here was drawn from ChEMBL document CHEMBL1148401.
